- experimental.target: His-YY1 full-length (UniProt P25490 1-414)
- Sequence (P25490 whole entry): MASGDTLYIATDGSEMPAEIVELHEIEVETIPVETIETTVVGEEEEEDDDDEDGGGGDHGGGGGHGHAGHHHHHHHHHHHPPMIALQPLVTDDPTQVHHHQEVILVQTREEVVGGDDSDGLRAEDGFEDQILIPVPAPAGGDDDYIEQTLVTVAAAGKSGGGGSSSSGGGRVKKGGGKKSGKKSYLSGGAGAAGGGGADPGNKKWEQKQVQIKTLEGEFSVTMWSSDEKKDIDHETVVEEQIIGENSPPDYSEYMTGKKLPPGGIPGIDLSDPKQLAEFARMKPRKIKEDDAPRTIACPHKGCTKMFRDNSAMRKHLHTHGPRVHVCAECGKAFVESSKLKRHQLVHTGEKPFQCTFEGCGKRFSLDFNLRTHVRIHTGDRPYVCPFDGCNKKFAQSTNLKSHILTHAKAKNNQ
- experiment.summary: EMSA; EMSA: 10 mM HEPES-KOH, 12 mM Tris-HCl, 50 mM NaCl, 50 mM KCl, 5 mM MgCl2, 100 uM ZnCl2, 0.01% NP-40, 5% glycerol, 2.5 mM DTT, pH 7.4, 25 C, 2.5 nM probe; FP: 50 mM Tris-HCl, 100 mM KCl, 2.5 mM MgCl2, 100 uM ZnCl2, pH 7.4, 25 C
- stated.conditions: protein: recombinant; tags: His; label: Cy5
Reported Kd values for a set of binders
A number alone suffices; assume nM.

| binder | quantity.measured | units | observed.value |
| --- | --- | --- | --- |
| GGGCGCGGCGCGCGGGCCGGGGCGGGCGCGCGGGCGGGGCGCGGCGCG (ssRNA) [randomised GC-rich RNA] | Kd | nM | 201 |

As a next step, examine the binder that follows.
Prompt: What value of Kd has been recorded for this entry: GGGGCCGGGGCCGGGGCCGGGGCCGGGGCCGGGGCCGGGGCCGGGGCC (ssRNA) [(GGGGCC)8 RNA]
Response: 46.8
